- Measurement Target: Alpha-1B adrenergic receptor (Homo sapiens, UniProt P35368)
- Sequence (P35368 whole entry): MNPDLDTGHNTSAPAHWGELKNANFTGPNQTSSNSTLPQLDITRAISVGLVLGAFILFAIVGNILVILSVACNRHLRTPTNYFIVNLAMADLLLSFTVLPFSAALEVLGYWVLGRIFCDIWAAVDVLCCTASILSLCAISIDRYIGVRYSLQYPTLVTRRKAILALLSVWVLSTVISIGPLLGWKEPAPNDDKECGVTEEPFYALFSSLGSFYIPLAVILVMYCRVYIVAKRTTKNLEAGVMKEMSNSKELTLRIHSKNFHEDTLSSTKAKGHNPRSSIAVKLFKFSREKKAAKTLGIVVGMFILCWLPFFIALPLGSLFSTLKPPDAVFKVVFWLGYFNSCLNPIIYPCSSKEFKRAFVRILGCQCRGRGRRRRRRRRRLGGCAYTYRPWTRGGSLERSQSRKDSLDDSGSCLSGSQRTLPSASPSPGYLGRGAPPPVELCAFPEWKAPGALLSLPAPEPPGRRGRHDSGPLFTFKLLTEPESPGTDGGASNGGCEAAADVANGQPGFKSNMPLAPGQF
- Test Description: Displacement of [3H]-Prazosin from human alpha-1B adrenergic receptor transfected in CHO cell membranes after 2 hrs by microplate scintillation counting analysis

{"columns": ["Molecular String", "Bound Sign", "IC50, nM"],
 "data": [
  ["CCN(CC)c1ccc2cc(-n3cc(C(=O)N4CCN(c5nc(N)c6cc(OC)c(OC)cc6n5)CC4)nn3)c(=O)oc2c1", "=", 1.2],
  ["COc1cc2nc(N3CCN(C(=O)c4cc5ccc(O)cc5oc4=O)CC3)nc(N)c2cc1OC", "<", 5],
  ["COc1cc2nc(N3CCN(C(=O)c4cn(-c5cc6ccc(O)cc6oc5=O)nn4)CC3)nc(N)c2cc1OC", "<", 5],
  ["COc1cc2nc(N3CCN(C(=S)Nc4ccc(-c5c6ccc(=O)cc-6oc6cc(O)ccc56)c(C(=O)O)c4)CC3)nc(N)c2cc1OC", "=", 16.3],
  ["CCN(CC)c1ccc2cc(-n3cc(CN4CCN(c5nc(N)c6cc(OC)c(OC)cc6n5)CC4)nn3)c(=O)oc2c1", "=", 52.4]
]}

* * *

Protein target, amino acids: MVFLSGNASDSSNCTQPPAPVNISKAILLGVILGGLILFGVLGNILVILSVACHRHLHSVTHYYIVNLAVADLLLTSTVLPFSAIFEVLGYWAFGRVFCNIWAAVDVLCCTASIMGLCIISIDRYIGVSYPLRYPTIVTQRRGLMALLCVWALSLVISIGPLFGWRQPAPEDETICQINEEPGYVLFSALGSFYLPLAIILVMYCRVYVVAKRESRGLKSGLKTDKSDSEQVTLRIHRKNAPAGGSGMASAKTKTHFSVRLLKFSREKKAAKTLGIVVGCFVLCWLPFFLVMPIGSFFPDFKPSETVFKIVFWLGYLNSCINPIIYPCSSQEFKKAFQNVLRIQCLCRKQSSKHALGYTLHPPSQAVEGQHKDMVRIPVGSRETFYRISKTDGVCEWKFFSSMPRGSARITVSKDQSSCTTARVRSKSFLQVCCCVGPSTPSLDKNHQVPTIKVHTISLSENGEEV

{"columns": ["Molecular String", "Ki / nM"],
 "data": [
  ["COc1cc2nc(N3CCN(C(=O)c4cc5ccc(O)cc5oc4=O)CC3)nc(N)c2cc1OC", 2.1],
  ["COc1cc2nc(N3CCN(C(=S)Nc4ccc(-c5c6ccc(=O)cc-6oc6cc(O)ccc56)c(C(=O)O)c4)CC3)nc(N)c2cc1OC", 4.7],
  ["CCN(CC)c1ccc2cc(-n3cc(C(=O)N4CCN(c5nc(N)c6cc(OC)c(OC)cc6n5)CC4)nn3)c(=O)oc2c1", 0.3],
  ["COc1cc2nc(N3CCN(C(=O)c4cn(-c5cc6ccc(O)cc6oc5=O)nn4)CC3)nc(N)c2cc1OC", 1.3],
  ["CCN(CC)c1ccc2cc(-n3cc(CN4CCN(c5nc(N)c6cc(OC)c(OC)cc6n5)CC4)nn3)c(=O)oc2c1", 29.9]
]}

* * *

Each item that follows carries a reported IC50.
- Measurement Target: UniProt:P25100
- Sequence (P25100 whole entry): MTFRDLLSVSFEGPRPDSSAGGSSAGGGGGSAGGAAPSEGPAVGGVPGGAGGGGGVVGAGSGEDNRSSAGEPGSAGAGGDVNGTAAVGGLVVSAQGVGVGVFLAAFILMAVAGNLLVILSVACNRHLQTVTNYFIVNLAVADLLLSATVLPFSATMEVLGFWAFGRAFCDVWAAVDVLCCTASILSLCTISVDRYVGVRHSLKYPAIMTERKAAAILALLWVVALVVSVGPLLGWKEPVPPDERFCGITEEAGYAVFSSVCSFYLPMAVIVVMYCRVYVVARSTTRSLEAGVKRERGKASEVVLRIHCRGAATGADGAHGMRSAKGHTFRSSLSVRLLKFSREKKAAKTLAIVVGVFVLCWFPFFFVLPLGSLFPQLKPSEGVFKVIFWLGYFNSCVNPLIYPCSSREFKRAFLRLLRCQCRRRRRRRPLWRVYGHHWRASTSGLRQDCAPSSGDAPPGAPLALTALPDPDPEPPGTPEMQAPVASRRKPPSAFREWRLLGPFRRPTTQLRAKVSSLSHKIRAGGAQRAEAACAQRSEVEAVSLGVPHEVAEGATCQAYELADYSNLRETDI
- Test Description: Displacement of [3H]-Prazosin from human alpha-1D adrenergic receptor transfected in CHO cell membranes after 2 hrs by microplate scintillation counting analysis

{"columns": ["Molecular String", "Measurement Target", "Unit String", "Bound Sign", "IC50"],
 "data": [
  ["COc1cc2nc(N3CCN(C(=O)c4cn(-c5cc6ccc(O)cc6oc5=O)nn4)CC3)nc(N)c2cc1OC", "UniProt:P25100", "nM", "<", 5],
  ["COc1cc2nc(N3CCN(C(=S)Nc4ccc(-c5c6ccc(=O)cc-6oc6cc(O)ccc56)c(C(=O)O)c4)CC3)nc(N)c2cc1OC", "UniProt:P25100", "nM", "=", 34],
  ["CCN(CC)c1ccc2cc(-n3cc(C(=O)N4CCN(c5nc(N)c6cc(OC)c(OC)cc6n5)CC4)nn3)c(=O)oc2c1", "UniProt:P25100", "nM", "=", 2.2],
  ["CCN(CC)c1ccc2cc(-n3cc(CN4CCN(c5nc(N)c6cc(OC)c(OC)cc6n5)CC4)nn3)c(=O)oc2c1", "UniProt:P25100", "nM", "=", 45.2],
  ["COc1cc2nc(N3CCN(C(=O)c4cc5ccc(O)cc5oc4=O)CC3)nc(N)c2cc1OC", "UniProt:P25100", "nM", "<", 5]
]}

* * *

Target sequence: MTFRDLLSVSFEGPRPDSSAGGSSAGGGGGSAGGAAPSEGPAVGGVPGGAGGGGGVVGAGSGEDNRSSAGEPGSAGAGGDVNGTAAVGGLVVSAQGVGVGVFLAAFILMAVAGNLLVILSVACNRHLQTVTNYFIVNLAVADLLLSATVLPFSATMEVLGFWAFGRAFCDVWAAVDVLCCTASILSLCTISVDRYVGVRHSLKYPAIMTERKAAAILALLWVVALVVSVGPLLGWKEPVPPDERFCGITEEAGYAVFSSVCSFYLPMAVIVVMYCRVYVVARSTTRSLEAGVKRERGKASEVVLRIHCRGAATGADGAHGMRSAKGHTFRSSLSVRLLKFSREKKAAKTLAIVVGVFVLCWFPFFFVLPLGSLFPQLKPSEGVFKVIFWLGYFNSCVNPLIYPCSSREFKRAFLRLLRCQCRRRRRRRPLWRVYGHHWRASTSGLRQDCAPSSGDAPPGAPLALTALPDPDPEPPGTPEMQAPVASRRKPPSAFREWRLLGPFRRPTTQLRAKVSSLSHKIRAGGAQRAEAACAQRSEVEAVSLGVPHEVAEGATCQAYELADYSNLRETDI
pKi: −log10 of the molar value.

{"columns": ["Molecular String", "pKi"],
 "data": [
  ["CCN(CC)c1ccc2cc(-n3cc(CN4CCN(c5nc(N)c6cc(OC)c(OC)cc6n5)CC4)nn3)c(=O)oc2c1", 7.56],
  ["COc1cc2nc(N3CCN(C(=S)Nc4ccc(-c5c6ccc(=O)cc-6oc6cc(O)ccc56)c(C(=O)O)c4)CC3)nc(N)c2cc1OC", 7.68],
  ["CCN(CC)c1ccc2cc(-n3cc(C(=O)N4CCN(c5nc(N)c6cc(OC)c(OC)cc6n5)CC4)nn3)c(=O)oc2c1", 9.40]
]}

* * *

- Measurement Target: Alpha-1A adrenergic receptor (Homo sapiens, UniProt P35348)
- Test Description: Displacement of [3H]-Prazosin from human alpha-1A adrenergic receptor transfected in CHO cell membranes after 2 hrs by microplate scintillation counting analysis
pIC50: −log10 of the molar value.

{"columns": ["Molecular String", "Measurement Target", "pIC50"],
 "data": [
  ["COc1cc2nc(N3CCN(C(=O)c4cc5ccc(O)cc5oc4=O)CC3)nc(N)c2cc1OC", "Alpha-1A adrenergic receptor (Homo sapiens, UniProt P35348)", 8.41],
  ["CCN(CC)c1ccc2cc(-n3cc(CN4CCN(c5nc(N)c6cc(OC)c(OC)cc6n5)CC4)nn3)c(=O)oc2c1", "Alpha-1A adrenergic receptor (Homo sapiens, UniProt P35348)", 7.28],
  ["COc1cc2nc(N3CCN(C(=S)Nc4ccc(-c5c6ccc(=O)cc-6oc6cc(O)ccc56)c(C(=O)O)c4)CC3)nc(N)c2cc1OC", "Alpha-1A adrenergic receptor (Homo sapiens, UniProt P35348)", 8.06],
  ["COc1cc2nc(N3CCN(C(=O)c4cn(-c5cc6ccc(O)cc6oc5=O)nn4)CC3)nc(N)c2cc1OC", "Alpha-1A adrenergic receptor (Homo sapiens, UniProt P35348)", 8.60],
  ["CCN(CC)c1ccc2cc(-n3cc(C(=O)N4CCN(c5nc(N)c6cc(OC)c(OC)cc6n5)CC4)nn3)c(=O)oc2c1", "Alpha-1A adrenergic receptor (Homo sapiens, UniProt P35348)", 9.22]
]}
